Would you kindly list Kd for each of these compounds?
# target_entity: PLEKHA7 PH domain (PHA7, wild-type) (Homo sapiens, UniProt Q6IQ23)
# Sequence (Q6IQ23 164-285): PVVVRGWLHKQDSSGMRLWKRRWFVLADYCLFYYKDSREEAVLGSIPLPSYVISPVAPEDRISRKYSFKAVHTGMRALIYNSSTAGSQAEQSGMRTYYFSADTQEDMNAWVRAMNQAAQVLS
# assay_overview: ITC titration of wild-type PHA7 with soluble IP headgroups or PIP nanodiscs
# experimental_conditions: read-out: ITC Kd, PHA7; soluble IP headgroups; 23°C; single-site binding model; average of triplicate

O=P(O)(O)OC1[C@H](O)[C@H](OP(=O)(O)O)C(OP(=O)(O)O)[C@H](OP(=O)(O)O)[C@H]1O (some centres unmarked) [IP(3,4,5)P3, inositol (1,3,4,5) tetraphosphate] ... 30.1 µM

// switching to the query compound
Enquiry: Lookup: Kd / PLEKHA7 PH domain (PHA7, wild-type) (Homo sapiens, UniProt Q6IQ23) / O=P(O)(O)O[C@@H]1[C@H](O)[C@H](O)[C@@H](OP(=O)(O)O)[C@H](OP(=O)(O)O)[C@H]1O [IP(4,5)P2, inositol (1,4,5) triphosphate]
Return: 30.5 µM

====

Would you mind telling me the reported pKd of each entry?
# target_entity: PHA7-D175K (PLEKHA7 PH domain mutant) (Homo sapiens, UniProt Q6IQ23, D175K)
# Sequence (Q6IQ23 164-285 D175K): as the sequence (Q6IQ23 164-285) above, with D12K counted along it
# assay_overview: ITC titration of mutant PHA7-D175K with soluble IP headgroups or PIP nanodiscs
# experimental_conditions: read-out: ITC Kd, PHA7-D175K; soluble IP headgroups; 23°C; single-site binding model; average of triplicate
Give bare numbers, as −log10 of the molar value.

O=P(O)(O)O[C@@H]1[C@H](O)[C@H](O)[C@@H](OP(=O)(O)O)[C@H](OP(=O)(O)O)[C@H]1O [IP(4,5)P2, inositol (1,4,5) triphosphate] ... 4.97

Enquiry: Enter reported pKd observed with PHA7-D175K (PLEKHA7 PH domain mutant) (Homo sapiens, UniProt Q6IQ23, D175K) for O=P(O)(O)OC1[C@H](O)[C@H](OP(=O)(O)O)C(OP(=O)(O)O)[C@H](OP(=O)(O)O)[C@H]1O (some centres unmarked) [IP(3,4,5)P3, inositol (1,3,4,5) tetraphosphate]
Return: 5.46
